Peptide text beside a SMILES is read from it.
quantity name: logP
Quick one: just the number, no unit, thanks!

Example cases with answers are listed next.
[[record]]
molecule = "OCCN1CCCCC1"
observed = 0.96

[[record]]
molecule = "CCOP(=S)(OCC)N1C(=O)c2ccccc2C1=O"
observed = 3.48

[[record]]
molecule = "COc1cccc(C=O)c1O"
observed = 1.37

[[record]]
molecule = "CC(=O)NCC(=O)N[C@@H](Cc1ccccc1)C(N)=O (Ac-Gly-Phe-NH2)"
observed = -0.56

[[record]]
molecule = "COc1ccc(Br)cc1-c1nc(N)nc(N)n1"
observed = 1.53

[[record]]
molecule = "Oc1cccc2c(Cl)ccnc12"
observed = 2.67

[[record]]
molecule = "CC(O)Cc1ccccc1 (stereo unspecified)"
observed = 1.97

[[record]]
molecule = "CC(=O)NN"
observed = -1.58


Asked: Which logP is listed for `O=NN1CCNCC1` ?
Given back: 0.18

Asked: Which logP is listed for `O=c1nccc[nH]1` ?
Given back: -1.62

Asked: Which logP is listed for `CC(=O)Nc1cccc(C)c1` ?
Given back: 1.68

Asked: Which logP is listed for `O=C(O)CCCCCN1C(=O)C=CC1=O` ?
Given back: 1.15

Asked: Which logP is listed for CN(C)C(N(C)C)=S(I)c1ccc(Cl)cc1Cl (stereo unspecified) ?
Given back: 0.47

Asked: Which logP is listed for `Cc1ccccc1OCC(=O)NNC(C)C` ?
Given back: 1.83

Asked: Which logP is listed for `CC(C)CN(N=O)C(N)=O` ?
Given back: 1.04

Asked: Which logP is listed for `CCN(CC)C(C)=O` ?
Given back: 0.34

---

Measured logP, listed per entry for reference.
Quick one: just the number, no unit, thanks!

Asked: Which logP is listed for `CCOC(=O)NC` ?
Given back: 0.34

---

Measured logP, listed per entry for reference.

Example cases with answers are listed next.
[[record]]
compound = "O=S(=O)(Nc1ccc(-c2ccccc2)cc1)C(F)(F)F"
quantity_name = "logP"
observed = 4.97

[[record]]
compound = "O=C(O)Cc1ccccc1F"
quantity_name = "logP"
observed = 1.5

[[record]]
compound = "CN(C)C(N(C)C)=S(I)c1ccc(I)cc1 (configuration not stated)"
quantity_name = "logP"
observed = 0.28


Asked: Which logP is listed for `CC(C)CC(=O)NN` ?
Given back: -0.31

Asked: Which logP is listed for `CCCCCCCOc1ccccc1NC(=O)OCCN1CCCCC1` ?
Given back: 5.62

Asked: Which logP is listed for `O=C(O)c1ccccc1Br` ?
Given back: 2.2

Asked: Which logP is listed for `CN1CCN(C2=Nc3cc(Cl)ccc3Nc3ccccc32)CC1` ?
Given back: 3.23

---

Peptide text beside a SMILES is read from it.
Measured logP, listed per entry for reference.
Quick one: just the number, no unit, thanks!

[[record]]
compound = "N#CCC(=O)c1ccccc1"
observed = 0.97

[[record]]
compound = "CCC1(CC)C(=O)NC(=O)NC1=O"
observed = 0.65

[[record]]
compound = "CC(=O)N[C@H](C(=O)N[C@H](C(N)=O)C(C)C)C(C)C (Ac-Val-Val-NH2)"
observed = -0.32

[[record]]
compound = "COc1ccc2cc(C(C)C(=O)OCC(=O)N(C)CCO)ccc2c1 (stereo not given)"
observed = 2.01

[[record]]
compound = "BrC(Br)(Br)Br"
observed = 3.42


Asked: Which logP is listed for `CC(C)c1cccc(C(C)C)c1NC(N)=O` ?
Given back: 2.26

Asked: Which logP is listed for `COc1cccc(C=C(C(N)=O)C(N)=O)c1` ?
Given back: 0.01

Asked: Which logP is listed for `NNC(=O)c1ccncc1` ?
Given back: -0.7

Asked: Which logP is listed for `O=c1c(O)c(-c2ccc(O)cc2O)oc2cc(O)cc(O)c12` ?
Given back: 1.54

Asked: Which logP is listed for `CCc1cccc(O)c1` ?
Given back: 2.4

Asked: Which logP is listed for `O=[As](O)(O)c1ccccc1` ?
Given back: 0.06

---

Measured logP, listed per entry for reference.
Quick one: just the number, no unit, thanks!

[[record]]
compound = "NS(=O)(=O)c1ccc2c(c1)S(=O)(=O)NC=N2"
quantity_name = "logP"
observed = -0.7


Attention now turns to another entry.
Asked: Which logP is listed for `Nc1ncnc2c1ncn2[C@@H]1O[C@H](CO)[C@@H](O)[C@H]1O` ?
Given back: -1.05

---

Measured logP, listed per entry for reference.

Example cases with answers are listed next.
[[record]]
compound = "NCCN1CCCC1"
observed = 0.08

[[record]]
compound = "CNC(=O)ON=Cc1ccccc1"
observed = 1.49

[[record]]
compound = "COc1ccc(OC(=O)N(C)C)cc1"
observed = 1.53

[[record]]
compound = "Fc1cccnc1"
observed = 0.77

[[record]]
compound = "NC(Cc1c[nH]c2ccc(F)cc12)C(=O)O (stereo not drawn)"
observed = -0.71


Asked: Which logP is listed for `COc1ccc(Cl)nn1` ?
Given back: 0.89

Asked: Which logP is listed for `CC(=O)Oc1ccc(C(C)=O)cc1` ?
Given back: 1.29

Asked: Which logP is listed for `CC(C)(C)c1cc(O)ccc1[N+](=O)[O-]` ?
Given back: 3.65

---

Could you label it true if measured logP is 3 or higher, and false otherwise?

[[record]]
compound = "COc1ccccc1C(N)=O"
label = "false"


Asked: Is reported logP greater than or equal to 3 here: `NCCCCc1ccccc1`
Given back: false

Asked: Is reported logP greater than or equal to 3 here: NS(=O)(=O)c1cc2c(cc1Cl)NC(Cc1ccccc1)NS2(=O)=O (stereo unspecified)
Given back: false

Asked: Is reported logP greater than or equal to 3 here: `c1ccc(Cn2cnnc2)cc1`
Given back: false

Asked: Is reported logP greater than or equal to 3 here: O=C(Nc1ccccc1)C1CNCCN1 (stereo unspecified)
Given back: false

Asked: Is reported logP greater than or equal to 3 here: `COP(=S)(OC)Oc1ccc([N+](=O)[O-])cc1`
Given back: false

Asked: Is reported logP greater than or equal to 3 here: `CN(C)CCOC(=O)c1ccc(Cl)cc1`
Given back: false

Asked: Is reported logP greater than or equal to 3 here: `CC(=O)c1cccs1`
Given back: false

Asked: Is reported logP greater than or equal to 3 here: `CC(=O)C1CC1`
Given back: false

Asked: Is reported logP greater than or equal to 3 here: O=C(NCC(O)CO)c1c(I)c(C(=O)NCC(O)CO)c(I)c(N(CCO)C(=O)CO)c1I (stereo unspecified)
Given back: false

Asked: Is reported logP greater than or equal to 3 here: CC(NNC(=O)COc1ccccc1)c1ccccc1 (stereo unspecified)
Given back: false

Asked: Is reported logP greater than or equal to 3 here: `O=C(O)Cc1ccccc1Nc1c(Cl)cccc1Br`
Given back: true

Asked: Is reported logP greater than or equal to 3 here: `CCCCCCBr`
Given back: true

Asked: Is reported logP greater than or equal to 3 here: `Clc1ccccc1-c1ccccc1`
Given back: true

Asked: Is reported logP greater than or equal to 3 here: `O=Cc1ccccc1Cl`
Given back: false

Asked: Is reported logP greater than or equal to 3 here: `C1CNCCN1`
Given back: false

Asked: Is reported logP greater than or equal to 3 here: `Nc1nnco1`
Given back: false

Asked: Is reported logP greater than or equal to 3 here: CC(Cl)[N+](=O)[O-] (stereo unspecified)
Given back: false

Asked: Is reported logP greater than or equal to 3 here: `O=[N+]([O-])c1ccc2oncc2c1`
Given back: false

Asked: Is reported logP greater than or equal to 3 here: `CCCCCOCc1cccc(NC(=O)OCCN2CCCCC2)c1`
Given back: true

Asked: Is reported logP greater than or equal to 3 here: `Oc1cc(Cl)c(Cl)cc1Cl`
Given back: true

Asked: Is reported logP greater than or equal to 3 here: `O=C(COc1ccccc1)NNCc1ccccc1`
Given back: false

Asked: Is reported logP greater than or equal to 3 here: CN1CCC(CN2c3ccccc3Sc3ccccc32)C1 (stereo unspecified)
Given back: true

Asked: Is reported logP greater than or equal to 3 here: CCCCC(CC)COP(=O)(Oc1ccccc1)Oc1ccccc1 (stereo unspecified)
Given back: true

Asked: Is reported logP greater than or equal to 3 here: CC(C)(C)C(O)C(Oc1ccc(-c2ccccc2)cc1)n1cncn1 (stereo unspecified)
Given back: true

Asked: Is reported logP greater than or equal to 3 here: `CN(C1CCCCC1)C1CCCCC1`
Given back: true

---

quantity name: logP
Quick one: just the number, no unit, thanks!

Example cases with answers are listed next.
[[record]]
compound = "O=C=O"
quantity_name = "logP"
observed = 0.83

[[record]]
compound = "Cc1ccccc1Cl"
quantity_name = "logP"
observed = 3.42

[[record]]
compound = "Cc1cnc2ccccc2n1"
quantity_name = "logP"
observed = 1.61

[[record]]
compound = "CNC(=O)Oc1ccc(I)cc1"
quantity_name = "logP"
observed = 2.46


Asked: Which logP is listed for `ClC=C(Cl)Cl` ?
Given back: 2.42

Asked: Which logP is listed for `Cc1cc2nc[nH]c2cc1C` ?
Given back: 2.35

Asked: Which logP is listed for `CNC(=O)Oc1ccc(C)cc1` ?
Given back: 1.66

Asked: Which logP is listed for `CCCc1cccc(OCC(=O)O)c1` ?
Given back: 2.71

Asked: Which logP is listed for `CC(=O)OCC(=O)[C@H]1CC[C@H]2[C@@H]3CCC4=CC(=O)CC[C@]4(C)[C@H]3CC[C@]12C` ?
Given back: 3.08

Asked: Which logP is listed for `Cc1[nH]cnc1CSCCNc1[nH]ccc(=O)c1[N+](=O)[O-]` ?
Given back: -0.2

Asked: Which logP is listed for `CC(=O)Oc1ccccc1C#N` ?
Given back: 1.33

Asked: Which logP is listed for `CC(=O)Oc1ccc(C(N)=O)cc1` ?
Given back: 0.27

Asked: Which logP is listed for CC12CCC(=O)C=C1CCC1C2C(O)CC2(C)C1CCC2(O)C(=O)COC(=O)CCC(N)=O (stereo not drawn) ?
Given back: 1.43

Asked: Which logP is listed for `CC(=O)N[C@@H](Cc1ccccc1)C(=O)NCC(=O)N[C@@H](CC(C)C)C(N)=O` ?
Given back: 0.6

Asked: Which logP is listed for `CC(C)SC(C)C` ?
Given back: 2.84

Data origin, for the record: the OPERA property sets (Mansouri et al. 2018)
